tested on: Aorta; test: Vasorelaxation activity in rat aorta assessed as inhibition of K+-induced contraction at 50 ug/ml preincubated for 15 mins relative to control; type: functional; set-up: scale not given: the % may be the effect or the level left

{"Compound": "COc1ccc2c(c1OC)CN1CCc3cc4c(cc3[C@@H]1C2)OCO4", "Assayed System": "Aorta", "Activity [%]": 13.6}
{"Compound": "CCCCCCC(=O)CC/C=C/C=C/C(=O)NCC(C)C [LANYUAMIDE I]", "Assayed System": "Aorta", "Activity [%]": 28.6}
{"Compound": "CCC(=O)CC/C=C\\CC/C=C/C=C/C(=O)NCC(C)C [LANYUAMIDE II]", "Assayed System": "Aorta", "Activity [%]": 36.1}
{"Compound": "COc1cc2ccc(=O)oc2cc1O", "Assayed System": "Aorta", "Activity [%]": 88.4}
{"Compound": "CC(=O)[C@H]1CC[C@H]2[C@@H]3CC=C4C[C@@H](O)CC[C@]4(C)[C@H]3CC[C@]12C", "Assayed System": "Aorta", "Activity [%]": 93.6}
{"Compound": "COc1ccc(-c2oc3c(OC)c(OC)cc(OC(C)=O)c3c(=O)c2OC(C)=O)cc1", "Assayed System": "Aorta", "Activity [%]": 25.3}

---

experiment: Antiplatelet activity against rabbit platelets assessed as inhibition of thrombin-induced platelet aggregation at 100 ug/ml preincubated for 3 mins by turbidimetric method; type: functional, Oryctolagus cuniculus; parameters: scale not given: the % may be the effect or the level left
Entries annotated with measured Activity
Recorded Endpoint: Activity

{"Compound": "CCCCCCC(=O)CC/C=C/C=C/C(=O)NCC(C)C [LANYUAMIDE I]", "Test Value": "8.9%"}
{"Compound": "COc1ccc(-c2oc3c(OC)c(O)cc(O)c3c(=O)c2O)cc1 [PRUDOMESTIN]", "Test Value": "87.5%"}
{"Compound": "CC/C=C\\C/C=C\\CC/C=C/C=C/C(=O)NCC(C)(C)O", "Test Value": "89.2%"}
{"Compound": "O=c1ccc2nccc3c4ccccc4n1c23 [CANTHIN-6-ONE]", "Test Value": "85.3%"}
{"Compound": "COc1ccc(-c2oc3c(OC)c(OC)cc(OC(C)=O)c3c(=O)c2OC(C)=O)cc1", "Test Value": "88.5%"}
{"Compound": "CCCCCCCCC/C=C/C=C/C(=O)NCC(C)(C)O [TETRAHYDROBUNGEANOOL]", "Test Value": "74%"}
{"Compound": "COc1ccc2c(c1OC)CN1CCc3cc4c(cc3[C@@H]1C2)OCO4 [CANADINE]", "Test Value": "91.2%"}
{"Compound": "CCC(=O)CC/C=C\\CC/C=C/C=C/C(=O)NCC(C)C [LANYUAMIDE II]", "Test Value": "0%"}
{"Compound": "CC/C=C/C/C=C\\CC/C=C/C=C/C(=O)NCC(C)(C)O", "Test Value": "89.2%"}
{"Compound": "CC(=O)[C@H]1CC[C@H]2[C@@H]3CC=C4C[C@@H](O)CC[C@]4(C)[C@H]3CC[C@]12C [PREGNENOLONE]", "Test Value": "91.8%"}
{"Compound": "COc1ccc(-c2oc3c(OC)c(OC)cc(O)c3c(=O)c2O)cc1 [TAMBULIN]", "Test Value": "81.1%"}
{"Compound": "COc1cc2ccc(=O)oc2cc1O [SCOPOLETIN]", "Test Value": "89.8%"}

Cited source: ChEMBL document CHEMBL1158680
